measured_target: T1, recombinant human DLL3 (human, UniProt Q9NYJ7 27-492)
T1 sequence: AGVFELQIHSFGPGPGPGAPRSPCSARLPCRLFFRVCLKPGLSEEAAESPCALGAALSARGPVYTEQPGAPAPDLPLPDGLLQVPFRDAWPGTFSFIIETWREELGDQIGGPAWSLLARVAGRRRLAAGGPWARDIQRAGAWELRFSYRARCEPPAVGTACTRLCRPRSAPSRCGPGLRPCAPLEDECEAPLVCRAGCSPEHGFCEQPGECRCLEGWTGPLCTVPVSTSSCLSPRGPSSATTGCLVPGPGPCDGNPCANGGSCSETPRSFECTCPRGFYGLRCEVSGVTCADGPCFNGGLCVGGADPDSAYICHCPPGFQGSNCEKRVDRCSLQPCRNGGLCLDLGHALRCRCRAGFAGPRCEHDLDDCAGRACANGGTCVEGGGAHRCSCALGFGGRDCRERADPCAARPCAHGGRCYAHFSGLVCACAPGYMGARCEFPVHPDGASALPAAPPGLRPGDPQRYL
test_description: Octet binning on SA sensor; Antibody A (biotinylated, loaded first): DL306-SG1; then 20 nM human DLL3, then 80 nM Antibody B
List of competition ratio (Antibody B to Antibody A) values.
property_name: competition ratio (Antibody B to Antibody A)

binder	result
DLL3-6-SG1 (antibody, human IgG1, kappa, V domains shown, Variable regions of a previously reported anti-DLL3 antibody on SG1/SK1; Used as a second antibody only) VH: QVQLQESGPGLVKPSETLSLTCTVSGASISSFYWSWIRQPPGKGLEWIGYIYYSGTTNYNPSLKSRVTISVDTSKNQFSLKLSSVTAADTAVYYCARIAVAGFFFDYWGQGTLVTVSS VL: EIVLTQSPGTLSLSPGERATLSCRASQSVNKNYLAWYQQKPGQAPRLLIYGASSRATGIPDRFSGSGSGTDFTLTISRLEPEDFAVYYCQQYDRSPLTFGGGTKVEIKR	1.3
D30841AE05-SG1 (antibody, human IgG1, kappa, V domains shown, Humanized variant of DLA0841 with SG1 heavy and SK1 light constant regions; Labelled with NHS-PEG4-Biotin when used as the first (immobilized) antibody in the Octet assay) VH: QVQLKESGPALVKPTQTLTLTCTFSGFSLSSSYDMGWVRQAPGQGLEWMGTIYTGDYSTDYASWAKGRVTITADESTSTAYMELSSLRSEDTAVYYCARNTGYGYFGLWGQGTLVTVSS VL: DIQLTQSPSFLSASVGDRVTITCQSTESVYGSDWLSWYQQKPGQPPKLLIYQASNLEIGVPSRFSGSGSGTDFTLTINSLEAEDAATYYCQGYYSGYIYAFGGGTKVEIKR	-0.1
DL301-SG1 (antibody, human IgG1, kappa, V domains shown, Variable regions of a previously reported anti-DLL3 antibody on SG1/SK1; Also used biotin-labelled as a first antibody) VH: QVQLQQSGADLVRPGTSVKVSCKASGYAFTNYLIEWIKQRPGQGLEWIGVMNPGSGGTHYSEKFRGKATLTADKSSSTAYMQLISLTSDDSAVYFCARSDYDYVTYAMDYWGQGTSVTVSS VL: DIKMTQSPSSMYASLGERVTITCKASQDINSYLIWFQQKPGKSPKTLIYRTNRLVDGVPSRFSGSGSGQDYSLTISSLEYGDMGIYYCLQYDEFPFTFGSGTKLEIKR	1.3
DLL3-4-SG1 (antibody, human IgG1, kappa, V domains shown, Variable regions of a previously reported anti-DLL3 antibody on SG1/SK1; Used as a second antibody only) VH: QVQLQESGPGLVKPSETLSLTCTVSGGSISSYYWSWIRQPPGKGLEWIGYVYYSGTTNYNPSLKSRVTISVDTSKNQFSLKLSSVTAADTAVYYCASIAVTGFYFDYWGQGTLVTVSS VL: EIVLTQSPGTLSLSPGERVTLSCRASQRVNNNYLAWYQQRPGQAPRLLIYGASSRATGIPDRFSGSGSGTDFTLTISRLEPEDFAVYYCQQYDRSPLTFGGGTKLEIKR	1.3
DL312-SG1 (antibody, human IgG1, kappa, V domains shown, Variable regions of a previously reported anti-DLL3 antibody on SG1/SK1; Also used biotin-labelled as a first antibody) VH: EVKLVESGGGLVQPGGSLSLSCAASGFTFTDYYMNWVRQPPGKALEWLALIRNKANGYTTEYNASVKGRFTISRDNSQNILYLQMNALRAEDSATYYCARDSDGYYEYYFDYWGQGTTLTVSS VL: DIQMTQSPSSLSASLGERVSLTCRASQEISDYLSWLQQKPDGTIKRLIFAASTLDSGVPKRFSGSRSGSDFSLSISSLESEDFADYYCLQYASYPYTFGSGTKLEIKR	1.4
DLL3-14-SG1 (antibody, human IgG1, kappa, V domains shown, Variable regions of a previously reported anti-DLL3 antibody on SG1/SK1; Used as a second antibody only) VH: QVQLVQSGAEVKKPGASVKVSCKASGYTFTNYYMHWVRQAPGLGLEWMGIINPSDGSTSYAQKFQGRVTMTRDTSTNTVYMDLSSLRSEDTAVYYCARGGNSAFYSYYDMDVWGQGTTVTVSS VL: DVVMTQTPLSLPVTLGQPASISCRSSQSLVYRDGNTYLSWFQQRPGQSPRRLIYKVSNWQSGVPDRFSGGGSGTDFTLKISRVEAEDVGVYYCMQGTHWPPTFGQGTKVEIKR	1.4
